# RUN DESCRIPTION: Cytotoxicity MTT assay, fibroblasts
# Type: cell-based, human
# EXPERIMENTAL CONDITIONS: human, MRC fibroblasts, 48 h incubation
Entries and their IC50 at 48 h

# MOLECULE, IC50 at 48 h, µM
rows = [
    ("CC(C)=CCC/C(C)=C/CC/C(C)=C/CC[C@]1(C)C=Cc2cc(O)cc(C)c2O1", 12),
    ("COc1c(C)cc(OC(C)=O)cc1CC1C(C)CCC2C3(C)CCC(OC(C)=O)C(C)(C)C3=CCC12C (stereo not drawn) [Compound 7, O,C(3)-seco-9-ene-6β-taondiol diacetate]", 102),
    ("CC(=O)Oc1cc(C)c2c(c1OC(C)=O)CC1(O2)C(C)CCC2C3(C)CCC(=O)C(C)(C)C3CCC21C (stereo not drawn) [Compound 11, 14-ketostypodiol diacetate]", 102),
]

###

# Test system: human epithelial gastric cells (AGS)
# RUN DESCRIPTION: Cytotoxicity MTT assay, AGS cells
# Assay type: cell-based
# EXPERIMENTAL CONDITIONS: 48 h incubation
METRIC: IC50

# COMPOUND, METRIC, OBS VALUE
measured = [
    ("Cc1cc(O)cc2c1OC1(C)CCC3C(C)(CCC4C(C)(C)C(O)CCC43C)C1C2 (stereo not shown) [Compound 5a, isoepitaondiol]", "IC50", "42 µM"),
]

###

Entries and their measured IC50 at 48 h follow.
# RUN DESCRIPTION: Cytotoxicity MTT assay, fibroblasts
# Assay type: cell-based, human
# EXPERIMENTAL CONDITIONS: human, MRC fibroblasts, 48 h incubation
METRIC: IC50 at 48 h (µM)

# MOLECULE, OBS VALUE
data = [
    ("CC(=O)Oc1cc(C)c2c(c1OC(C)=O)CC1(O2)C(C)CCC2C3(C)CCC(OC(C)=O)C(C)(C)C3CCC21C (stereo not shown) [Compound 9, stypotriol triacetate]", 21),
    ("Cc1c(OCC(F)(F)F)ccnc1C[S+]([O-])c1nc2ccccc2[nH]1 (stereo not shown) [Lansoprazole, lansoprazole, reference compound]", 392),
    ("Cc1cc(O)cc2c1OC1(C2)C(C)CCC2C3(C)CCC(O)C(C)(C)C3CCC21C (stereo not shown)", 215),
    ("CC(=O)Oc1c(Cl)c(C)c2c(c1OC(C)=O)CC1(O2)C(C)CCC2C3(C)CCC(OC(C)=O)C(C)(C)C3CCC21C (stereo not shown) [Compound 8, 4'-chlorostypotriol triacetate]", 12),
]

###

# RUN DESCRIPTION: Cytotoxicity MTT assay, AGS cells
# Type: cell-based, human
# EXPERIMENTAL CONDITIONS: human, AGS cells (human gastric epithelial cells), 48 h incubation

# COMPOUND, UNIT INFO, IC50 at 48 h
measured = [
    ("Cc1cc(O)cc2c1OC1(C2)C(C)CCC2C3(C)CCC(O)C(C)(C)C3CCC21C (centres unmarked) [Compound 4a, stypodiol]", "µM", 153),
    ("CC(C)=CCC/C(C)=C/CC/C(C)=C/CC[C@]1(C)C=Cc2cc(O)cc(C)c2O1 [Compound 1a, sargaol]", "µM", 18),
    ("Cc1cc(O)cc2c1OC1(C)CCC3C(C)(CCC4C(C)(C)C(O)CCC43C)C1C2 (centres unmarked) [Compound 3a, epitaondiol]", "µM", 29),
    ("CC(=O)Oc1c(Cl)c(C)c2c(c1OC(C)=O)CC1(O2)C(C)CCC2C3(C)CCC(OC(C)=O)C(C)(C)C3CCC21C (centres unmarked) [Compound 8, 4'-chlorostypotriol triacetate]", "µM", 11),
    ("CC(=O)Oc1cc(C)c2c(c1OC(C)=O)CC1(O2)C(C)CCC2C3(C)CCC(=O)C(C)(C)C3CCC21C (centres unmarked) [Compound 11, 14-ketostypodiol diacetate]", "µM", 65),
    ("COc1c(C)cc(OC(C)=O)cc1CC1C(C)CCC2C3(C)CCC(OC(C)=O)C(C)(C)C3=CCC12C (stereo not drawn) [Compound 7, O,C(3)-seco-9-ene-6β-taondiol diacetate]", "µM", 85),
    ("CC(=O)Oc1cc(C)c2c(c1OC(C)=O)CC1(O2)C(C)CCC2C3(C)CCC(OC(C)=O)C(C)(C)C3CCC21C (centres unmarked) [Compound 9, stypotriol triacetate]", "µM", 14),
    ("Cc1c(OCC(F)(F)F)ccnc1C[S+]([O-])c1nc2ccccc2[nH]1 (centres unmarked) [Lansoprazole, lansoprazole, reference compound]", "µM", 198),
]

###

# Test system: human fibroblast (MRC fibroblasts)
# RUN DESCRIPTION: Cytotoxicity MTT assay, fibroblasts
# Type: cell-based
# EXPERIMENTAL CONDITIONS: 48 h incubation

# COMPOUND, IC50 / µM
records = [
    ("Cc1cc(O)cc2c1OC1(C)CCC3C(C)(CCC4C(C)(C)C(O)CCC43C)C1C2 (centres unmarked) [Compound 3a, epitaondiol]", 19),
    ("Cc1cc(O)cc2c1OC1(C)CCC3C(C)(CCC4C(C)(C)C(O)CCC43C)C1C2 (centres unmarked) [Compound 5a, isoepitaondiol]", 65),
]

###

# Tested on: HCl/EtOH-induced gastric lesions in mice
# RUN DESCRIPTION: HCl/EtOH-induced gastric lesions model in mice
# Type: in vivo
# EXPERIMENTAL CONDITIONS: mice, oral; title: 30 mg/kg; method: meroditerpenoids 40 mg/kg, lansoprazole 30 mg/kg; versus control
Marks after values point to notes of the source that are not given here.

# COMPOUND, % Lesion Reduction
measured = [
    ("Cc1cc(O)cc2c1OC1(C2)C(C)CCC2C3(C)CCC(O)C(C)(C)C3CCC21C (stereo not shown)", "69 * %"),
    ("Cc1cc(O)cc2c1OC1(C)CCC3C(C)(CCC4C(C)(C)C(O)CCC43C)C1C2 (stereo not shown) [Compound 5a, isoepitaondiol]", "78 * %"),
    ("CC(C)=CCC/C(C)=C/CC/C(C)=C/CC[C@]1(C)C=Cc2cc(O)cc(C)c2O1", "52 * %"),
    ("CC(=O)Oc1cc(C)c2c(c1OC(C)=O)CC1(O2)C(C)CCC2C3(C)CCC(OC(C)=O)C(C)(C)C3CCC21C (stereo not shown) [Compound 9, stypotriol triacetate]", "12%"),
    ("Cc1c(OCC(F)(F)F)ccnc1C[S+]([O-])c1nc2ccccc2[nH]1 (stereo not shown) [Lansoprazole, lansoprazole, reference compound]", "66 * %"),
    ("Cc1cc(O)cc2c1OC1(C)CCC3C(C)(CCC4C(C)(C)C(O)CCC43C)C1C2 (stereo not shown) [Compound 3a, epitaondiol]", "60 * %"),
    ("CC(=O)Oc1cc(C)c2c(c1OC(C)=O)CC1(O2)C(C)CCC2C3(C)CCC(=O)C(C)(C)C3CCC21C (stereo not shown) [Compound 11, 14-ketostypodiol diacetate]", "9%"),
]
